# TEST SUMMARY: Critical micelle concentration (CMC) with fluorescent probe N-phenyl-1-naphthylamine
# Type: physicochemical
# APPLIED CONDITIONS: surfactant in PBS pH 7.4
# Description: Critical Micelle Concentration (CMC) was determined for a range of surfactants, following the method described by Brito et al. ‘Determination of the critical micelle concentration of surfactants using the fluorescent probe N-phenyl-1-naphthylamine.’ Anal. Biochem 1986 (152) 250-255. […] The evolution of SWCNTs resuspension was performed by optical density measurement (at 600 nm) on a microplate reader. […]
Measured CMC accompanies every entry in the list below.

{"MOLECULE": "CCCCCCCCCCCC[N+](C)(C)C.[Br-] [DTAB, dodecyltrimethylammonium bromide]", "UNIT INFO": "µg/mL", "CMC": 3515.1}
{"MOLECULE": "CCCCCCCCCCCC[N+](C)(CCCCCCCCCCCC)CCCCCCCCCCCC.[Cl-] [TMAC, tridodecylmethylammonium chloride]", "UNIT INFO": "µg/mL", "CMC": 246.2}
{"MOLECULE": "CCCCCCCCCCCCCC[N+](C)(C)CCCCCCCCCCCCCC.[Br-] [DTDAB, ditetradecyldimethylammonium bromide]", "UNIT INFO": "µg/mL", "CMC": 7.8}
{"MOLECULE": "CCCCCCCCCCCCCCCC[N+](C)(C)CCCCCCCCCCCCCCCC.[Br-] [DHDAB, dihexadecyldimethylammonium bromide]", "UNIT INFO": "µg/mL", "CMC": 5.2}
{"MOLECULE": "CCCCCCCCCCCC[N+](C)(C)CCCCCCCCCCCC.[Br-] [DDAB, didodecyldimethylammonium bromide]", "UNIT INFO": "µg/mL", "CMC": 32.4}
